# Tested on: P388 leukemia ip, CD2F1 mice, survival T/C
# PROTOCOL_TEXT: NCI In Vivo Anticancer Drug Screen. Data for tumor model P388 Leukemia (intraperitoneal) in CD2F1 (CDF1) mice
# MEASUREMENT_CONDITIONS: endpoint: median survival time; dose: 12.5 mg/kg/injection; schedule: Q01DX005 (ip); vehicle: saline; higher = longer survival
Inconclusive results and toxic doses are left out.
OBSERVABLE: T/C

Request: T/C, test system P388 leukemia ip, CD2F1 mice, survival T/C, entry O=C1NC2(CCCCC2)C(=O)N1CCl
101 % of control

Request: T/C, test system P388 leukemia ip, CD2F1 mice, survival T/C, entry [Cl][Mn][Cl].[NH-]NP(=S)(N[NH-])Oc1ccccc1.[NH-]NP(=S)(N[NH-])Oc1ccccc1
99 % of control

Request: T/C, test system P388 leukemia ip, CD2F1 mice, survival T/C, entry CC(C)(C)NC1=NCCNC(c2ccccc2)=C1
100 % of control

Request: T/C, test system P388 leukemia ip, CD2F1 mice, survival T/C, entry OC1CC2c3ccccc3C1c1cccc[n+]12 (stereo unspecified)
106 % of control

Request: T/C, test system P388 leukemia ip, CD2F1 mice, survival T/C, entry CCCCCCCCCCCCC1C(=O)NCCNCCCNCCNC1=O
101 % of control

Request: T/C, test system P388 leukemia ip, CD2F1 mice, survival T/C, entry CCCCNC1Cc2ccccc2CC1O (stereo unspecified)
104 % of control

---

# Test system: P388 leukemia ip, CD2F1 mice, survival T/C
# PROTOCOL_TEXT: NCI In Vivo Anticancer Drug Screen. Data for tumor model P388 Leukemia (intraperitoneal) in CD2F1 (CDF1) mice
# MEASUREMENT_CONDITIONS: endpoint: median survival time; dose: 60.0 mg/kg/injection; schedule: Q01DX005 (ip); vehicle: saline with Tween-80; higher = longer survival
Inconclusive results and toxic doses are left out.
Assign T/C to each entry below.

Could you share which T/C value was measured for Cc1nc2c(o1)CCCC2 ?
95 % of control

Could you share which T/C value was measured for C/C(CCCC(C)(C)C(=O)O)=N\NC(N)=O ?
100 % of control

Could you share which T/C value was measured for O=c1c2cc3c(=O)n(CO)c(=O)c3cc2c(=O)n1CO ?
118 % of control

Could you share which T/C value was measured for COCCOC(=O)Nc1c(Cl)cccc1Cl ?
98 % of control

Could you share which T/C value was measured for Cc1nc(Br)c(C(O)c2ccccc2)n1C (stereo unspecified) ?
103 % of control

Could you share which T/C value was measured for O=C(O)c1cn2c3c(cc(N4CCN(CCO)CC4)cc3c1=O)SCC2 ?
104 % of control

Could you share which T/C value was measured for COc1ccc2nc(NC(=O)Nc3c(Cl)cccc3Cl)sc2c1 ?
95 % of control

Could you share which T/C value was measured for C(=N\NC1=NCCN1)/c1ccc(-c2cn3cc(/C=N/NC4=NCCN4)ccc3n2)cc1 ?
112 % of control

Could you share which T/C value was measured for O=C(Nc1ccc(Cl)c(Cl)c1)C1C(=O)C(=O)N(c2ccc(Cl)c(Cl)c2)C1=O (stereo unspecified) ?
101 % of control

Could you share which T/C value was measured for C=C(Br)c1ccc2c(c1)OCO2 ?
106 % of control

Could you share which T/C value was measured for CCCCCCCCCc1ccc(OC(C)OCCOCCOCC)cc1 (stereo unspecified) ?
98 % of control

Could you share which T/C value was measured for CCOc1ccc(/C=N/NC(=O)CC2CCCCC2)cc1OC ?
90 % of control

Could you share which T/C value was measured for NC(CCC(N)C(=O)c1ccccc1)C(=O)c1ccccc1 (stereo unspecified) ?
98 % of control

Could you share which T/C value was measured for O=C1OC(C2OC(=O)C(=O)C2C(=O)c2cccc([N+](=O)[O-])c2)C(C(=O)c2cccc([N+](=O)[O-])c2)C1=O (stereo unspecified) ?
100 % of control

Could you share which T/C value was measured for Cc1cc2c(cc1C)[n+](=O)c1c(n2[O-])CCC1 ?
100 % of control

Could you share which T/C value was measured for CC(C)c1ccc(/C=C(/NC(=O)c2ccccc2)c2nc3ccccc3s2)cc1 ?
104 % of control

Could you share which T/C value was measured for O=C1c2ccccc2C(=O)c2c3c(cc([N+](=O)[O-])c21)OCO3 ?
100 % of control

Could you share which T/C value was measured for CCCCCCCCCCCCCCOCCS(=O)(=O)O ?
86 % of control

Could you share which T/C value was measured for [Cu+2].[Cu+2].c1ccc2c(c1)-c1nc-2nc2[n-]c(nc3nc(nc4[n-]c(n1)c1ccccc41)-c1ccccc1-3)c1cc3c4nc5nc(nc6[n-]c(nc7nc(nc([n-]4)c3cc21)-c1ccccc1-7)c1ccccc61)-c1ccccc1-5 ?
100 % of control

Could you share which T/C value was measured for CN(C)c1c(Cl)c(=O)oc2c1ccc1nc(-c3ccccc3)ncc12 ?
97 % of control

Could you share which T/C value was measured for Cc1csnn1 ?
102 % of control

Could you share which T/C value was measured for CC1=C(C(=O)CC(=O)C(=O)Nc2ccc(C)cc2)Sc2ccccc2N1 ?
105 % of control

Could you share which T/C value was measured for CCC(CC)C(=O)NC(=O)NC(N)=O ?
97 % of control

Could you share which T/C value was measured for O=C1Sc2ccccc2C(=O)N2CCCC12 (stereo unspecified) ?
97 % of control

Could you share which T/C value was measured for O=C(Nc1ccc(Cl)c(Cl)c1)/C(Cl)=C1/Sc2ccccc2NC1=O ?
105 % of control

Could you share which T/C value was measured for O=C1C=CC(Nc2ccc(Cl)c(Cl)c2)C1Nc1ccc(Cl)c(Cl)c1 (stereo unspecified) ?
100 % of control

Could you share which T/C value was measured for CC(C)(C)OC(=O)C(N(Cc1ccccc1)Cc1ccccc1)N(Cc1ccccc1)Cc1ccccc1 ?
88 % of control

Could you share which T/C value was measured for COc1ccc(/C=C2/C(=O)ON=C2C)cc1OC ?
99 % of control

Could you share which T/C value was measured for NC(N)=NS(=O)(=O)c1ccc(N=Cc2c3ccccc3nc3cc(Cl)ccc23)cc1 ?
91 % of control

Could you share which T/C value was measured for CN(C)c1ccc(/C(O)=C\c2ncnc3ccccc23)cc1 ?
94 % of control

Could you share which T/C value was measured for CC(C)(C)SC(=S)SCC(=O)c1ccc(F)cc1 ?
102 % of control

Could you share which T/C value was measured for Cc1cccc(Nc2ncnc3c2c(=O)n(C)c(=O)n3C)c1 ?
86 % of control

Could you share which T/C value was measured for Cc1ncc(C(O)c2ccc(Cl)cc2)n1Cc1ccccc1 (stereo unspecified) ?
96 % of control

Could you share which T/C value was measured for CS(=O)CCN=Cc1ccc(N=Nc2ccc(O)cc2)cc1 (stereo unspecified) ?
103 % of control

Could you share which T/C value was measured for Cc1cc(C(=O)O)c(C)c2c1sc1ccccc12 ?
101 % of control

Could you share which T/C value was measured for CCN1CC(O)Cc2ccccc21 (stereo unspecified) ?
100 % of control

---

Assign T/C to each entry below.
# System: P388 leukemia ip, CD2F1 mice, survival T/C
# PROTOCOL_TEXT: NCI In Vivo Anticancer Drug Screen. Data for tumor model P388 Leukemia (intraperitoneal) in CD2F1 (CDF1) mice
# MEASUREMENT_CONDITIONS: endpoint: median survival time; dose: 25.0 mg/kg/injection; schedule: Q01DX009 (ip); vehicle: saline with Tween-80; higher = longer survival
Toxic doses and inconclusive results are not listed.

Could you share which T/C value was measured for Cc1nnc(NC(=O)CCl)s1 ?
95 % of control

Could you share which T/C value was measured for O=C(CCl)NCc1ccc([N+](=O)[O-])cc1 ?
108 % of control

Could you share which T/C value was measured for CC(CN1CCCCC1)C(=O)c1ccc(-c2ccccc2)cc1 (stereo not drawn) ?
100 % of control

Could you share which T/C value was measured for O=C1C(=O)c2ccccc2-c2ccccc21 ?
108 % of control

Could you share which T/C value was measured for CCOC(=O)c1ccc(NC(=O)Nc2cnccn2)cc1 ?
93 % of control

Could you share which T/C value was measured for O=C(/C=C/c1ccco1)c1ccc(O)c(C(=O)O)c1 ?
99 % of control

Could you share which T/C value was measured for O=C([O][Hg][CH2]C1COC([CH2][Hg][O]C(=O)c2ccccc2)CO1)c1ccccc1 (stereo not drawn) ?
120 % of control

Could you share which T/C value was measured for CC1=CCCC1C1C=CCC1 (stereo not drawn) (tested in a mixture with another compound) ?
102 % of control

Could you share which T/C value was measured for C=C[Se](=C(C(C)=O)C(C)=O)c1ccccc1 (stereo not drawn) ?
96 % of control

Could you share which T/C value was measured for COc1cc(OC)c(C(=O)CCl)c(O)c1Cl ?
113 % of control

Could you share which T/C value was measured for CC1CCC(C(C)C)C2(C1)OC(CCl)CS2 (stereo not drawn) ?
114 % of control

Could you share which T/C value was measured for S=C(S)NN1CCCC1 ?
100 % of control

Could you share which T/C value was measured for O=C1CCCC2C3CC(CN12)C1CCCCN1C3 (stereo not drawn) ?
100 % of control

Could you share which T/C value was measured for O=S(Nc1ccccc1)Nc1ccccc1 ?
100 % of control

Could you share which T/C value was measured for Cn1/c2cc/c1=C(\c1ccccc1)c1ccc([n-]1)/C(c1ccccc1)=c1/cc/c([nH]1)=C(\c1ccccc1)c1ccc([n-]1)/C=2c1ccccc1.O.O=S(=O)(O)C(F)(F)F.[Cu+2] ?
91 % of control

Could you share which T/C value was measured for Nc1ccc2cc3c(nc2n1)[nH]c1ccccc13 ?
118 % of control

Could you share which T/C value was measured for CCCNCCC(O)c1cc(C(F)(F)F)nc2c(C(F)(F)F)cccc12 (stereo not drawn) ?
102 % of control

Could you share which T/C value was measured for O=C(CCCN1CCC(C(=O)c2ccc(F)cc2)CC1)c1ccc(F)cc1 ?
110 % of control
